# credit: the supplement of paper PMC12669032

Quick reference: growth AUC of the listed items.
System: Lactobacillus paracasei
experiment description: growth AUC relative to DMSO control (median of replicates) (fraction); higher = more growth (less inhibition), active = hit call of the paper
experimental parameters: 20 µM; 24 h
In your answer, state the number alone without any accompanying words.

Solved cases below.
{"columns": ["compound", "growth AUC"],
 "data": [
  ["CC[N+](CC)(CC(=O)Nc1c(C)cccc1C)Cc1ccccc1.O=C([O-])c1ccccc1", 1.05],
  ["CN(C)C(=O)c1cccnc1S(N)(=O)=O", 1.04],
  ["CCOC(=O)c1ccc(O)cc1", 0.978],
  ["COc1cc(OC)nc(NC(=O)NS(=O)(=O)Nc2ccccc2C(=O)N(C)C)n1", 0.939],
  ["CCOc1nc(F)cc2nc(S(=O)(=O)Nc3c(Cl)cccc3C(=O)OC)nn12", 1.06]
]}

Can you look up growth AUC on Lactobacillus paracasei for NC(=O)c1c(Cl)cccc1Cl ?
1.03

Can you look up growth AUC on Lactobacillus paracasei for CON=C(Cc1cccnc1)c1ccc(Cl)cc1Cl ?
1.18

Can you look up growth AUC on Lactobacillus paracasei for COC1CCC2(CC1)NC(=O)C(O)(c1cc(C)ccc1C)C2=O (stereo not drawn) ?
1.06

---

Test system: Bifidobacterium longum subsp. longum
experiment description: growth AUC relative to DMSO control (median of replicates) (fraction); higher = more growth (less inhibition), active = hit call of the paper;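 active = AUC reduced over 20% with Padj below 0.05 in at least 2 of 3 replicates; inactive = otherwise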
experimental parameters: 20 µM; 24 h
Would you mind answering with one of these outcomes? True = active, False = inactive

Please share the test call associated with CCCOC(=O)NCCCN(C)C .
False

---

System: Bacteroides thetaiotaomicron
experiment description: growth AUC relative to DMSO control (median of replicates) (fraction); higher = more growth (less inhibition), active = hit call of the paper
experimental parameters: 20 µM; 24 h
measure: growth AUC

Solved cases below.
{"columns": ["compound", "measure", "recorded value"],
 "data": [
  ["C=CCO/N=C(\\CCC)C1=C([O-])CC(C)(C)C(C(=O)OC)C1=O.[Na+] (stereo not drawn)", "growth AUC", "1.02 (inactive)"],
  ["Nc1ccc(S(=O)(=O)Nc2cnc3ccccc3n2)cc1", "growth AUC", "0.946 (inactive)"]
]}

Let us examine a further case.
Can you look up growth AUC on Bacteroides thetaiotaomicron for CC1=C(C(=O)Nc2ccccc2)CCCO1 ?
0.99 (inactive)

---

Test system: Roseburia intestinalis
experiment description: growth AUC relative to DMSO control (median of replicates) (fraction); higher = more growth (less inhibition), active = hit call of the paper
experimental parameters: 20 µM; 24 h
measure: growth AUC
In your answer, state the number alone without any accompanying words.

{"columns": ["compound", "growth AUC"],
 "data": [
  ["CCOC(=O)C1=NOC(c2ccccc2)(c2ccccc2)C1", 1.01]
]}

Can you look up growth AUC on Roseburia intestinalis for CCCCC(CC)COC(=O)COc1ccc(Cl)cc1C (stereo not given) ?
0.93

Can you look up growth AUC on Roseburia intestinalis for CN(C)c1ccc(N=NS(=O)(=O)[O-])cc1.[Na+] ?
1.03

Can you look up growth AUC on Roseburia intestinalis for C#CCOC(=O)[C@@H](C)Oc1ccc(Oc2ncc(Cl)cc2F)cc1 ?
1.06

Can you look up growth AUC on Roseburia intestinalis for CCCCOCN(C(=O)CS(=O)(=O)[O-])c1c(CC)cccc1CC.[Na+] ?
0.935

Can you look up growth AUC on Roseburia intestinalis for S=C([S-])NCCNC(=S)[S-].S=C([S-])NCCNC(=S)[S-].[Mn+2].[Zn+2] ?
0.999
